Measured values drawn from patent US6737383B1 for this set.

tested on: giant foxtail; assay: Test B pre/postemergence giant foxtail; type: in vivo, Setaria faberii; details: Preemergence, Rate 125 g/ha
measured_attribute: Giant foxtail plant response rating (0 to 10 scale)

- CC(C)N(C(=O)n1oc(=O)n(C2CCCCCC2)c1=O)c1ccc(F)cc1: 10
- CCc1cccc(CC)c1-n1c(=O)on(C(=O)N(c2ccccc2)C(C)C)c1=O: 8
- CC(C)N(C(=O)n1oc(=O)n(C2CC2)c1=O)c1ccc(F)cc1F: 10
- CC(C)N(C(=O)n1oc(=O)n(C2(C)CC2)c1=O)c1ccc(F)cc1: 10
- COCC(C)N(C(=O)n1oc(=O)n(-c2ccccc2C)c1=O)c1ccc(F)cc1 (centres unmarked): 0

---

tested on: sugar beet; test: Test B pre/postemergence sugar beet; format: in vivo, Beta vulgaris; conditions: Preemergence, Rate 500 g/ha; scale 0 to 10, 0 is no effect, 10 is complete control
Entries and their Sugarbeets plant response rating
measured_attribute: Sugarbeets plant response rating

- CCC=CCn1c(=O)on(C(=O)N(c2ccccc2)C(C)C)c1=O [Compound 454]: 0
- Cc1nc(Cl)sc1C(C)n1c(=O)on(C(=O)N(c2ccc(F)cc2F)C(C)C)c1=O (stereo not shown) [Compound 405]: 0
- CC(C)N(C(=O)n1oc(=O)n(CCC#N)c1=O)c1ccccc1 [Compound 436]: 5
- CC(C)N(C(=O)n1oc(=O)n(C(CF)CF)c1=O)c1ccccc1 [Compound 421]: 10

---

Collected Nutsedge plant response rating values appear next to each entry.
system: purple nutsedge; experiment: Test B pre/postemergence purple nutsedge; type: in vivo, Cyperus rotundus; details: Preemergence, Rate 500 g/ha; scale of 0 to 10 where 0 is no effect and 10 is complete control
measured_attribute: Nutsedge plant response rating

• CCCCn1c(=O)on(C(=O)N(c2ccccc2)C(C)C)c1=O = 0
• CCCCn1c(=O)on(C(=O)N(c2ccc(Cl)cc2)C(C)C)c1=O = 0
• CCOP(=O)(Cn1c(=O)on(C(=O)N(c2ccc(F)cc2)C(C)C)c1=O)OCC = 0
• COCCOCn1c(=O)on(C(=O)N(c2ccc(F)cc2F)C(C)C)c1=O = 8
• CC(C)N(C(=O)n1oc(=O)n(CCC(F)(F)F)c1=O)c1ccc(Cl)cc1 = 0
• CC(C)N(C(=O)n1oc(=O)n(CC2=CCCCC2)c1=O)c1ccccc1 = 0

---

system: wild oat; test: Test B pre/postemergence wild oat; format: in vivo, Avena fatua; details: Postemergence, Rate 500 g/ha; scale of 0 to 10 where 0 is no effect and 10 is complete control
measured_attribute: Plant response rating, Wild oats

- COCn1c(=O)on(C(=O)N(c2ccccc2)C(C)C)c1=O: 4
- CCCCn1c(=O)on(C(=O)N(c2ccccc2)C(C)C)c1=O: 2
- CC(C)N(C(=O)n1oc(=O)n(COCc2ccccc2)c1=O)c1ccccc1: 0
- CCOC(=O)CC(C(=O)OCC)n1c(=O)on(C(=O)N(c2ccc(F)cc2)C(C)C)c1=O (stereo not shown): 0

---

Let's look at some molecules and their measured Sugarbeets plant response rating.
System: sugar beet
Assay: Test B pre/postemergence sugar beet
Type: in vivo, Beta vulgaris
Settings: Rate 500 g/ha, Postemergence; scale 0 to 10, 0 no effect, 10 complete control
Procedure: […] At the same time, these crop and weed species were also treated with postemergence applications of test chemicals formulated in the same manner. […] Treated plants and controls were maintained in a greenhouse for twelve to sixteen days, after which all species were compared to controls and visually evaluated. […]
measured_attribute: Sugarbeets plant response rating

* CC(C)N(C(=O)n1oc(=O)n(CC(C)(C)C)c1=O)c1ccccc1 | 2
* CC(C)N(C(=O)n1oc(=O)n(Cc2ccccc2)c1=O)c1ccccc1 | 3
* Cc1ccccc1-n1c(=O)on(C(=O)N(Cc2ccccc2)C(C)C)c1=O | 0
* Cc1cccc(C(C)C)c1-n1c(=O)on(C(=O)N(c2ccccc2)C(C)C)c1=O | 0
